# MEASURED ON: T1, human LTBP1-proTGFβ1 complex (human, UniProt Q14766 347-1721; P01137 30-390)
# T1 construct: Large latent complex: one presenting molecule disulfide-linked to a proTGFβ1 dimer; also called Hu LTBP1-proTGFβ1; huLTBP1 proTGFβ1
# EXPERIMENT SUMMARY: SPR Biacore 8K, Fab over captured antigen
EXPERIMENTAL READOUT: koff (s⁻¹)
State just the number; it will be interpreted in s⁻¹.

- BINDER: "SR-AB56-HuFab (Fab, V domains shown, Human Fab; also called SR-Ab56 Fab) VH: QVQLVESGGGVVQPGRSLRLSCAASGFTFRSYVMHWVRQAPGKGLEWVAVISHEGSGKYYADSVKGRFTISRDNSKNTLYLQMNSLRAEDTAVYYCALPRIAARRGGFGSWGQGTLVTVSS VL: NFMLTQPHSVSESPGKTVTISCTRSSGNIDYNYVQWYQQRPGSSPTTVIYEDNVRPSGVPDRFSGSIDSSSNSASLTISGLKTEDEADYYCQSYDYDTQGVVFGGGTKLTVL"
  koff / s⁻¹: 0.000126

// moving on: another record for koff
Answer with the recorded koff for the binder listed here: SR-AB52-HuFab (Fab, V domains shown, Human Fab; also called SR-AB52 Fab) VH: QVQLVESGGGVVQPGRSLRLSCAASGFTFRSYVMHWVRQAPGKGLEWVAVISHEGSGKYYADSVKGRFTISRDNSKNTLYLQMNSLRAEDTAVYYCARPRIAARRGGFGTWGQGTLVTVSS VL: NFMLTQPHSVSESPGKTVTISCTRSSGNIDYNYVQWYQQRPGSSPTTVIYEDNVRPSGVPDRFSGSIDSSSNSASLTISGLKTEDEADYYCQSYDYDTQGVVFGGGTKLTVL 9.91e-05
